assay: ATG_TCF_b_cat_CIS: Attagene CIS-FACTORIAL HepG2 Assay for human T-Cell-Factor with beta-catenin (TCF/b-cat) (AID 2282965); conditions: HepG2 TCF/beta-catenin cis-reporter transcription, actives raise or lower the signal
Calls of active or inactive are those of the source. How the source made its calls: active means hit-call score of the fitted dose curve at least 0.9, where 1 is the maximum; inactive means score below 0.9.
Would you mind answering with one of these outcomes? 1 for active, 0 for inactive

Before answering, review these 2 worked examples.
sample_smiles: COP(=O)(OC)O/C(=C\Cl)c1cc(Cl)c(Cl)cc1Cl
group_label: 1
//
sample_smiles: C=CCc1ccc(OC)cc1
group_label: 0

Ask: Lab log entry: CCCCCCCCSC(=O)Oc1cc(Cl)nnc1-c1ccccc1 — outcome as called in the assay?
Result: 1

Where these numbers come from: PubChem BioAssay (EPA / NIEHS)
